Please provide measured T/C for the entries that follow.
Test system: P388 leukemia ip, CD2F1 mice, survival T/C
Test: NCI In Vivo Anticancer Drug Screen. Data for tumor model P388 Leukemia (intraperitoneal) in CD2F1 (CDF1) mice
Conditions: endpoint: median survival time; dose: 120.0 mg/kg/injection; schedule: Q01DX005 (ip); vehicle: Klucel (hydroxypropylcellulose) (HPC); higher = longer survival
Inconclusive results and toxic doses are left out.

# annotated cases, reported T/C shown
1) Fc1cccc2c(SCCCCCCSc3c4ccccc4nc4c(F)cccc34)c3ccccc3nc12 ... 89 % of control
2) O=c1[nH]c2c([N+](=O)[O-])cc(Cl)cc2nc1/C=C(\O)c1cccnc1 ... 99 % of control
3) Fc1ccc2nc3ccccc3c(SCCCCCCSc3c4ccccc4nc4ccc(F)cc34)c2c1 ... 90 % of control
4) O=C1C(N=Nc2ccc(Cl)cc2)Sc2nc3ccccc3n21 (stereo unspecified) ... 90 % of control
5) COC(=O)c1cc(Cl)ccc1OS(N)(=O)=O ... 102 % of control

Moving on to another compound below.
Exercise: Please look up its T/C: COC(=O)c1ccc(C(=O)OC)c2nc3cc(C)c(C)cc3nc12
Solution: 98 % of control

* * *

System: P388 leukemia ip, CD2F1 mice, survival T/C
Assay: NCI In Vivo Anticancer Drug Screen. Data for tumor model P388 Leukemia (intraperitoneal) in CD2F1 (CDF1) mice
Conditions: endpoint: median survival time; dose: 240.0 mg/kg/injection; schedule: Q01DX005 (ip); vehicle: Klucel (hydroxypropylcellulose) (HPC); higher = longer survival
Toxic doses and inconclusive results are not listed.
Please provide measured T/C for the entries that follow.

1. CCCCCC(C(=O)OCC)/C(C)=N\NC(N)=S (stereo not given) ... 100 % of control
2. NC1=C(O)C(=O)C(c2ccc(C3OC(N)=C(O)C3=O)cc2)O1 (stereo not given) ... 96 % of control
3. Cc1ccccc1C1OC2=C(Nc3ccc([N+](=O)[O-])cc3N2)C1=O (stereo not given) ... 101 % of control

Answer for every listed entry: what is its T/C? The entries follow.
1. CC1(C(=O)O)C2C=CC3(CN(c4ccccc4)C(=O)C31c1ccccc1)O2 (stereo not given)
2. CC(C)C1=CC23CCC4C(C)(C(=O)O)CCCC4(C)C2CC1C(C(=O)NCCCN(C)C)C3C(=O)O (stereo not given)
3. c1ccc(C2=NC(=c3ccc(=C4N=C(c5ccccc5)C(c5ccccc5)=N4)cc3)N=C2c2ccccc2)cc1

Solution:
1: 102 % of control; 2: 93 % of control; 3: 100 % of control

Answer for every listed entry: what is its T/C? The entries follow.
1. NC(=O)c1cc(C(Cl)Cl)ccn1
2. S=P(Oc1ccccc1)(N1CCCCN1)N1CCCCN1

Solution:
93 % of control
100 % of control

* * *

Please provide measured T/C for the entries that follow.
Tested on: P388 leukemia ip, CD2F1 mice, survival T/C
Test: NCI In Vivo Anticancer Drug Screen. Data for tumor model P388 Leukemia (intraperitoneal) in CD2F1 (CDF1) mice
Conditions: endpoint: median survival time; dose: 200.0 mg/kg/injection; schedule: Q01DX009 (ip); vehicle: distilled water + Tween-80; higher = longer survival
Inconclusive results and toxic doses are left out.

# annotated cases, reported T/C shown
1) Nc1nc(N)nc(CCC(Cl)(Cl)Cl)n1 ... 100 % of control
2) COc1cc(OC)c(OC)cc1/C=N/NC(=O)N/N=C/c1cc(OC)c(OC)cc1OC ... 94 % of control
3) COc1cc2ccnc(/C=N\O)c2cc1OC ... 91 % of control
4) N#Cc1ccc(NC(=O)Nc2nncs2)cc1 ... 104 % of control

Moving on to another compound below.
Exercise: Please look up its T/C: O=C(CCl)Nc1nncs1
Solution: 100 % of control

* * *

Test system: P388 leukemia ip, CD2F1 mice, survival T/C
Test: NCI In Vivo Anticancer Drug Screen. Data for tumor model P388 Leukemia (intraperitoneal) in CD2F1 (CDF1) mice
Conditions: endpoint: median survival time; dose: 12.5 mg/kg/injection; schedule: Q01DX005 (ip); vehicle: saline; higher = longer survival
Inconclusive results and toxic doses are left out.
endpointName: T/C

# annotated cases, reported T/C shown
1) CCCCN(CCCC)CC(O)c1ccc(F)c2ccccc12 (configuration not stated) ... 96 % of control
2) NCCC[Se]CC(N)C(=O)O (configuration not stated) ... 100 % of control
3) COc1cc(NC(C)CCCN)c2ncc(Br)cc2c1 (configuration not stated) ... 91 % of control
4) COc1cc(NC(C)CCCNC(C)C)c2ncccc2c1OC (configuration not stated) ... 93 % of control
5) C#CCC(N)C(=O)O (configuration not stated) ... 107 % of control

Answer for every listed entry: what is its T/C? The entries follow.
1. C[C@H]1CC(=O)C[C@H]2CCCCN21
2. CN(C)CC(CN(C)C)C(=O)c1ccc(O)cc1

Solution:
103 % of control
105 % of control

* * *

Test system: P388 leukemia ip, CD2F1 mice, survival T/C
Test: NCI In Vivo Anticancer Drug Screen. Data for tumor model P388 Leukemia (intraperitoneal) in CD2F1 (CDF1) mice
Settings: endpoint: median survival time; dose: 240.0 mg/kg/injection; schedule: Q01DX005 (ip); vehicle: saline with Tween-80; higher = longer survival
Description: The antitumor activity of compounds was measured in mice bearing transplantable tumors. Survival or tumor size were measured and the results are expressed as the measurement made in the treated group (T) divided by the measurement made in the vehicle treated control group (C). The tumor model used in this assay is P388 Leukemia (intraperitoneal) in CD2F1 (CDF1) mice
Inconclusive results and toxic doses are left out.
endpointName: T/C

1) CSc1nc(NC2OC(CO)C(O)C(O)C2O)c(Cl)c(=O)[nH]1 (configuration not stated) ... 98 % of control
2) O=C(O)c1c(O)ccc(O)c1C(=O)O ... 97 % of control
3) N#Cc1c(-c2ccc(Cl)cc2)cn2c1[nH]c(=O)c1ccccc12 ... 96 % of control
4) C[Si](C)(C)CCCn1ccc(=O)[nH]c1=O ... 88 % of control
5) CN1C(=O)C(O)(c2c3c(c(C4(O)C(=O)N(C)c5ccccc54)c4c2OCO4)OCO3)c2ccccc21 (configuration not stated) ... 91 % of control
6) O=C(NN=c1c(=O)c2ccccc2c1=O)c1ccncc1 ... 119 % of control
7) BrCCCC1OCCO1 ... 104 % of control
8) COc1ccc(Nc2nc3c(s2)c(C)c(O)c2ccccc23)cc1 ... 112 % of control

Answer for every listed entry: what is its T/C? The entries follow.
1. COc1cc2c(cc1CCCc1cc(OC)c(OC)c(OC)c1)OCO2
2. N#CC(C(=O)CCCC(=O)Nc1ccccc1[N+](=O)[O-])c1ccc(Cl)cc1Cl (configuration not stated)
3. O=C(CCl)N1CCN(c2ccccn2)CC1
4. COCc1ccnn1-c1ccccc1C

Solution:
1. 86 % of control
2. 101 % of control
3. 116 % of control
4. 104 % of control

* * *

Please provide measured T/C for the entries that follow.
Test system: P388 leukemia ip, CD2F1 mice, survival T/C
Assay: NCI In Vivo Anticancer Drug Screen. Data for tumor model P388 Leukemia (intraperitoneal) in CD2F1 (CDF1) mice
Details: endpoint: median survival time; dose: 100.0 mg/kg/injection; schedule: Q04DX003 (ip); vehicle: Klucel (hydroxypropylcellulose) (HPC); higher = longer survival
Toxic doses and inconclusive results are not listed.

# annotated cases, reported T/C shown
1. Cc1cc(-c2ccc(N3C(=O)CC4(CCCCC4)C3=O)c(C)c2)ccc1N1C(=O)CC2(CCCCC2)C1=O ... 90 % of control
2. Nc1ncnc2c1ncn2C1OC(CO)C(O)C1O (centres undefined) ... 96 % of control
3. CC(=O)Nc1ccc(CN2CC(C)N(N)C(C)C2)cc1 (centres undefined) ... 95 % of control
4. CCCNC(=S)N/N=C(/C)c1nccc2ccccc12 ... 108 % of control

Answer for every listed entry: what is its T/C? The entries follow.
1. Cc1c(Cl)c(Cl)nn1C(C)C(=O)N(C)C (centres undefined)
2. Cc1csc2ncnc(N)c12
3. Cc1ccc(S(=O)(=O)N2CC3CC=C(Cc4ccnc5ccccc45)CC(C2)C3=O)cc1 (centres undefined)
4. CC(=O)c1ccc(N(C)C(=O)C(Cl)Cl)cc1
5. CC(C)C1OC2(CCCC2)OCC1(C)C (centres undefined)
6. COc1ccc(-c2nn(C)c3c2C(=O)CCC3)cc1OC
7. O=C1COCC(=O)OCCOCCOCCOCCO1

Solution:
95 % of control
115 % of control
105 % of control
100 % of control
103 % of control
94 % of control
99 % of control

Answer for every listed entry: what is its T/C? The entries follow.
1. COc1ccc(C(=O)N2C(=O)CCC2=O)cc1
2. Cc1nnc(N/N=C/c2ccccc2)n1/N=C\c1ccccc1
3. CS/C(=C1/C(=O)N(c2ccccc2)N=C1c1ccccc1)N1CC1

Solution:
113 % of control
101 % of control
98 % of control

Values compiled from PubChem BioAssay AID330.
